Source of measurements: the supplement of paper PMC9116672

- measurement protocol: duplex melting temperature (HRM, EvaGreen); higher = more stable duplex
- condition: duplex concentration 20 µM; backbone: PS-PO (listed strand fully phosphorothioate, complement phosphodiester)
Reported values of duplex melting temperature for individual entries
Please answer in the form of a number followed by its unit of measurement.

sequence record | duplex melting temperature
CTCGGAGGCCCCATTTA | 70.9 °C
TTGTAGTTGACGTTTGTGATTTAGTGAATT | 70.8 °C

Record request: duplex melting temperature value, item "AGCACGGTGGTACAACA"
69.1 °C

Also, "GCGGTTGGTGGCCAAC" please.
71.9 °C

====

- measurement protocol: duplex melting temperature (HRM, EvaGreen); higher = more stable duplex
- condition: duplex concentration 20 µM; backbone: PS-PO (listed strand fully phosphorothioate, complement phosphodiester)
quantity name: duplex melting temperature
Please answer in the form of a number followed by its unit of measurement.

Examples from the recorded data:
sequence record | experimental value
CGCGCGAGTATTTATAACCT | 68.4 °C
TAATTATACGAGTAGTTTCTGTCCTG | 67.9 °C
GATTGTATCATCGACATCACACTACC | 70.8 °C
GATCTCTCTATCATCGTTTATTGGGTAT | 68.1 °C

Record request: duplex melting temperature value, item "CGGCGCGCTG"
69.3 °C
